Test: Photobleaching (photodegradation) under UV irradiation at 365 nm
Type: physicochemical
Details: solution in DMSO; DMSO, UV 365 nm; read-out: t1/2 of photodegradation (converted)
Procedure: The photofading was carried out in quartz cells. […] The irreversible bleaching of the luminophores at the absorption peak was monitored as a function of time. The EAS of the dye solution was recorded at equal intervals of irradiation (through 5–20 min) on a spectrofluorometer SM2203 in the 300–600 nm wavelength range. […]
QUANTITY_MEASURED: half-life (h)

- COC(=O)CCCC1=C2C(C)=CC(C)=[N+]2[B-](F)(F)n2c(C)cc(C)c21: 8.3

Where do these numbers come from? They come from paper PMC9138141.
